System: Sam68 (KHDRBS1)
Assay: Sam68 small-molecule binders, primary screen, biochemical, small-molecule microarray, 635 nm fluorescence (AID 1125);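 note: score merges 667 nm channel intensity with signal to noise over triplicate slides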
Details: small-molecule microarray binding, higher = more signal
Assign a class from recorded composite z-score; defined classes: bucket A (below 0.2), bucket B (0.2 to below 0.7), bucket C (0.7 or more)

# classify by composite z-score band: CO[C@@H]1COC(=O)CC=C[C@H](C)COC(=O)[C@H](C)NC(=O)CC=C[C@H]1C
bucket B

# classify by composite z-score band: CCOC(=O)[C@H](CC(C)C)NC(=O)CCC1CC(OC(=O)NCc2cccc3ccccc23)CC2(CCCC(COC(=O)NCc3ccccc3)O2)O1 (stereo partly specified)
bucket A

# classify by composite z-score band: CCN1C(=O)[C@H]2[C@H]3[C@H](O)[C@H](O)CC(=NOC)[C@@H]3CC[C@H]2C1=O
bucket A

# classify by composite z-score band: CCOC(=O)NN=C1C[C@@H](O)[C@@H](O)[C@@H]2[C@@H]3C(=O)N(Cc4ccc5c(c4)OCO5)C(=O)[C@@H]3CC[C@@H]12
bucket C

# classify by composite z-score band: CCOC(=O)CCN1C(=O)[C@H]2[C@H]3[C@H](O)[C@H](O)CC(=NNC(=O)OCC)[C@@H]3CC[C@H]2C1=O
bucket C

# classify by composite z-score band: CC(C)CON=C1C[C@@H](O)[C@@H](O)[C@@H]2[C@@H]3C(=O)N(c4cccc(Oc5ccccc5)c4)C(=O)[C@@H]3CC[C@H]12
bucket B

# classify by composite z-score band: C[C@@H](ON=C1[C@H]2CCn3c(=O)n(-c4ccccc4)c(=O)n3[C@H]2[C@H](O)[C@@H]2O[C@H]12)c1cn([C@H](CO)Cc2ccccc2)nn1
bucket B

# classify by composite z-score band: CCOC(=O)c1ccc(NC(=O)O[C@H]2[C@H](OC(=O)Nc3ccccc3)[C@@H](OC(=O)Nc3ccccc3)[C@@H](OC)O[C@@H]2CO)cc1
bucket C

# classify by composite z-score band: O=C1[C@H]2[C@H]3[C@H](O)[C@H](O)CC(=NOCc4ccccc4)[C@H]3CC[C@H]2C(=O)N1Cc1ccccc1
bucket A

# classify by composite z-score band: CO[C@H]1COC(=O)CC=C[C@@H](C)COC(=O)[C@@H](OCc2ccccc2)C=C[C@@H]1C
bucket A

# classify by composite z-score band: Cc1cc2c(nc1C)CCCN2CC(O)CN1CCCc2nc(-c3ccc(Br)cc3)ccc21 (stereo unspecified)
bucket C

# classify by composite z-score band: CC(C)C(=O)N[C@@H]1CCCN1C(=O)C=Cc1ccccc1
bucket C

# classify by composite z-score band: CC(C)=NOC[C@@H](O)COCc1ccco1
bucket A

# classify by composite z-score band: CCOC(=O)NN=C1C[C@@H](O)[C@@H](O)[C@@H]2[C@@H]3C(=O)N(Cc4ccccc4)C(=O)[C@@H]3CC[C@@H]12
bucket B

# classify by composite z-score band: CCCNC(=O)OC[C@H]1O[C@H](CCON=C(C)CCN2CCc3nc(-c4ccccc4)c(-c4ccccc4)cc3C2)C=C[C@@H]1Oc1ccc(OC)cc1
bucket B

# classify by composite z-score band: COC(=O)[C@H](C)NC(=O)CCC1CC(OC(=O)NCCc2ccc(F)cc2)CC2(CCCC(COC(=O)NCCCN3CCCC3=O)O2)O1 (stereo partly specified)
bucket C

====

Experiment: small-molecule microarray binders of probe aNog, primary screen, biochemical, biotinylated probe, 635/667 nm fluorescence (AID 1115);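 note: probe is biotinylated aNog protein used at 0.15 µg/mL for 1 h at 4 C; z-score combines 667 nm fluorescence of each spot with its signal to noise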
Details: higher = more signal
recorded_metric: composite z-score
Please reply with the number alone, leaving off any unit.

Requested field: composite z-score. Item: CC(C)C(=O)N[C@@H]1CCCN1C(=O)C=Cc1ccccc1
0.173

Requested field: composite z-score. Item: CC(C)=NOC[C@@H](O)COCc1ccco1
-0.342

Requested field: composite z-score. Item: CCN1C(=O)[C@H]2[C@H]3[C@H](O)[C@H](O)CC(=NNC(=O)OCc4ccc(OC)cc4)[C@H]3CC[C@H]2C1=O
0.664

Requested field: composite z-score. Item: CCOC(=O)[C@H](CC(C)C)NC(=O)CCC1CC(OC(=O)NCc2cccc3ccccc23)CC2(CCCC(COC(=O)NCc3ccccc3)O2)O1 (stereo not given in full)
-0.0029

Requested field: composite z-score. Item: CCN1C(=O)[C@H]2[C@H]3[C@H](O)[C@H](O)CC(=NOC)[C@@H]3CC[C@H]2C1=O
-0.122

====

So I've got a bunch of molecules here, and I need their composite z-score values.
Tested on: Chordin-like protein 2 (CHRDL2)
Assay: CHRDL2 small-molecule binders, primary screen, biochemical, small-molecule microarray, 635 nm fluorescence (AID 1126);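 note: printed compound slides probed with Chrdl2 protein at 4 µg/mL for 1 h at 4 C; score merges 667 nm emission intensity with signal to noise over three replicate slides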
Conditions: small-molecule microarray binding, fluorescence 635 nm; higher = more signal
Please reply with the number alone, leaving off any unit.

Item: CC(C)=NO[C@@H](C)c1cc(-c2c(C)cc(C)cc2C)no1 Test system: Chordin-like protein 2 (CHRDL2) Read-out: composite z-score Value: ?
0.227

Item: CCOC(=O)NN=C1C[C@@H](O)[C@@H](O)[C@@H]2[C@@H]3C(=O)N(Cc4ccccc4)C(=O)[C@@H]3CC[C@@H]12 Test system: Chordin-like protein 2 (CHRDL2) Read-out: composite z-score Value: ?
0.772

Item: CC(C)=NOC[C@@H](O)COCc1ccco1 Test system: Chordin-like protein 2 (CHRDL2) Read-out: composite z-score Value: ?
0.397

Item: CO[C@@H]1C=CCC(=O)N2CCC[C@H]2C(=O)OC[C@H](C)C(=O)OC[C@H]1C Test system: Chordin-like protein 2 (CHRDL2) Read-out: composite z-score Value: ?
1.01

Item: C[C@@H](ON=C1[C@H]2CCn3c(=O)n(-c4ccccc4)c(=O)n3[C@H]2[C@H](O)[C@@H]2O[C@H]12)c1cn([C@H](CO)Cc2ccccc2)nn1 Test system: Chordin-like protein 2 (CHRDL2) Read-out: composite z-score Value: ?
0.353

Item: Cc1cc2c(nc1C)CCCN2CC(C)ON=C[C@@H](C)[C@H](OCc1ccccc1)C(C)C (stereo not given in full) Test system: Chordin-like protein 2 (CHRDL2) Read-out: composite z-score Value: ?
0.173

Item: O=C(NN=C1C[C@@H](O)[C@@H](O)[C@@H]2[C@@H]3C(=O)N(Cc4ccc5c(c4)OCO5)C(=O)[C@@H]3CC[C@H]12)OCc1ccccc1 Test system: Chordin-like protein 2 (CHRDL2) Read-out: composite z-score Value: ?
-0.556

Item: CCCNC(=O)OC[C@H]1O[C@H](CCON=C(C)CCC(=O)OC[C@H]2O[C@H](C#Cc3ccccc3)C=C[C@@H]2Oc2ccc(C)cc2)C=C[C@@H]1Oc1ccc(OC)cc1 Test system: Chordin-like protein 2 (CHRDL2) Read-out: composite z-score Value: ?
-0.288

Item: CC(C)CCN1CCc2nc(-c3ccccc3)c3c(c2C1)CO[C@@H](C)C3 Test system: Chordin-like protein 2 (CHRDL2) Read-out: composite z-score Value: ?
0.656

Item: CCCNC(=O)OC[C@H]1O[C@H](CCON=C(C)CCN2CCc3nc(-c4ccccc4)c(-c4ccccc4)cc3C2)C=C[C@@H]1Oc1ccc(OC)cc1 Test system: Chordin-like protein 2 (CHRDL2) Read-out: composite z-score Value: ?
-0.273

Item: Cc1ccc(S(=O)(=O)N[C@H]2COC(=O)[C@@H](C)COC(=O)[C@H](C)NC(=O)CC=C[C@H]2C)cc1 Test system: Chordin-like protein 2 (CHRDL2) Read-out: composite z-score Value: ?
0.954

Item: CO[C@H]1COC(=O)[C@H](C)NC(=O)CC=C[C@@H](C)[C@H](OC)COC(=O)CC=C[C@@H]1C Test system: Chordin-like protein 2 (CHRDL2) Read-out: composite z-score Value: ?
1.49

Item: O=C1[C@H]2[C@H]3[C@H](O)[C@H](O)CC(=NOCc4ccccc4)[C@H]3CC[C@H]2C(=O)N1Cc1ccccc1 Test system: Chordin-like protein 2 (CHRDL2) Read-out: composite z-score Value: ?
0.374

Item: CC(C)CON=C1C[C@@H](O)[C@@H](O)[C@@H]2[C@@H]3C(=O)N(c4cccc(Oc5ccccc5)c4)C(=O)[C@@H]3CC[C@H]12 Test system: Chordin-like protein 2 (CHRDL2) Read-out: composite z-score Value: ?
0.22

Item: CCN1C(=O)[C@H]2[C@H]3[C@H](O)[C@H](O)CC(=NOC)[C@@H]3CC[C@H]2C1=O Test system: Chordin-like protein 2 (CHRDL2) Read-out: composite z-score Value: ?
0.508

====

Experiment: P. aeruginosa biofilm formation inhibitors, primary screen, strain PAO1, LB-PBS medium, absorbance 600 nm (AID 1176); note: test concentration not given here
Settings: P. aeruginosa PAO1 growth/biofilm, A600, 12 h; higher = more signal
Note to self: values exactly at -0.07 are satisfied. So z-score at or above -0.07 is satisfied, below is not satisfied.

Decide: z-score of CO[C@H]1COC(=O)[C@H](C)NC(=O)CC=C[C@@H](C)[C@H](OC)COC(=O)CC=C[C@@H]1C >= -0.07?
not satisfied

Decide: z-score of C=C(C)C(=O)OC[C@@H]1CN2[C@@H](CC[C@@H](C)[C@@H]2c2ccc(Br)cc2)C(=O)O1 >= -0.07?
satisfied

Decide: z-score of C=CCN(C(=O)C1N(CCCCCCO)C(=O)C2C(C(=O)O)C3C=CC21O3)c1ccc(OC)cc1 (stereo not drawn) >= -0.07?
not satisfied

Decide: z-score of CO[C@@H]1C=CCC(=O)N2CCC[C@H]2C(=O)OC[C@H](C)C(=O)OC[C@H]1C >= -0.07?
not satisfied

Decide: z-score of CCOC(=O)NN=C1C[C@@H](O)[C@@H](O)[C@@H]2[C@@H]3C(=O)N(Cc4ccccc4)C(=O)[C@@H]3CC[C@@H]12 >= -0.07?
satisfied

Decide: z-score of O=C1[C@H]2[C@H]3[C@H](O)[C@H](O)CC(=NOCc4ccccc4)[C@H]3CC[C@H]2C(=O)N1Cc1ccccc1 >= -0.07?
satisfied

Decide: z-score of COC(=O)C1=C(C)N(Cc2ccccc2)[C@]23O[C@](C(=O)OC)(C(=O)N2[C@@H]1c1ccccc1)[C@H]1C(=O)N(C)C(=O)[C@H]13 >= -0.07?
not satisfied
